Protein target, amino acids: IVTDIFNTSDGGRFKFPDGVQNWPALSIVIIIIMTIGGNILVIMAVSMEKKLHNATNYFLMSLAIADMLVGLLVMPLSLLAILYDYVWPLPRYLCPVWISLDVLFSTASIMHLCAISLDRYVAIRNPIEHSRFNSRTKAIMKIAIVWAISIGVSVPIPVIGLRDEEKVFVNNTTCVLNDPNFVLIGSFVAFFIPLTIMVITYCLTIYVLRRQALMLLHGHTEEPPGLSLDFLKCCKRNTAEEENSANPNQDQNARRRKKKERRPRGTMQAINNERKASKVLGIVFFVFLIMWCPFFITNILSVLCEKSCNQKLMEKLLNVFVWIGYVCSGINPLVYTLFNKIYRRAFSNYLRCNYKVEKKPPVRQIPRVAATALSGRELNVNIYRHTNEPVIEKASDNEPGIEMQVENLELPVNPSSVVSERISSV
property_measured: pKi
Convention used: pKi is expressed as -log10 of the molar concentration.

Recorded pKi for `Cc1ccc(F)cc1CO[C@H]1CCc2ccc(N3CCNC[C@H]3C)nc21` , please?
8.82

====

target_or_test_system: 5HT2b (Homo sapiens, UniProt P41595)
Sequence (P41595 whole entry): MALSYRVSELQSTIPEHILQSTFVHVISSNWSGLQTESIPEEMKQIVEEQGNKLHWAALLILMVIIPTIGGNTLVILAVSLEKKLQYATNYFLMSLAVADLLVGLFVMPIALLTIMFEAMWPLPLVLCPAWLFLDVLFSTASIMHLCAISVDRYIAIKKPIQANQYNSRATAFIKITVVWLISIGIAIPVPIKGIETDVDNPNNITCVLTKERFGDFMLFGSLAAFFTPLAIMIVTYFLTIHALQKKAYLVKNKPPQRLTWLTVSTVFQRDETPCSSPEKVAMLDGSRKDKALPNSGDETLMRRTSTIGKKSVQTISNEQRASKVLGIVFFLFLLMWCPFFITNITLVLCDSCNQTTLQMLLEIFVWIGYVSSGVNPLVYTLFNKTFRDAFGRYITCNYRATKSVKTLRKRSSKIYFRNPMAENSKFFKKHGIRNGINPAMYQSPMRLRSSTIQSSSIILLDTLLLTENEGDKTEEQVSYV
property_measured: pKi
Convention used: pKi is expressed as -log10 of the molar concentration.

Recorded pKi for `Cc1ccc(F)cc1CO[C@H]1CCc2ccc(N3CCNC[C@H]3C)nc21` , please?
8.11

====

target_or_test_system: 5HT2a (Homo sapiens)
Sequence (P28223 whole entry): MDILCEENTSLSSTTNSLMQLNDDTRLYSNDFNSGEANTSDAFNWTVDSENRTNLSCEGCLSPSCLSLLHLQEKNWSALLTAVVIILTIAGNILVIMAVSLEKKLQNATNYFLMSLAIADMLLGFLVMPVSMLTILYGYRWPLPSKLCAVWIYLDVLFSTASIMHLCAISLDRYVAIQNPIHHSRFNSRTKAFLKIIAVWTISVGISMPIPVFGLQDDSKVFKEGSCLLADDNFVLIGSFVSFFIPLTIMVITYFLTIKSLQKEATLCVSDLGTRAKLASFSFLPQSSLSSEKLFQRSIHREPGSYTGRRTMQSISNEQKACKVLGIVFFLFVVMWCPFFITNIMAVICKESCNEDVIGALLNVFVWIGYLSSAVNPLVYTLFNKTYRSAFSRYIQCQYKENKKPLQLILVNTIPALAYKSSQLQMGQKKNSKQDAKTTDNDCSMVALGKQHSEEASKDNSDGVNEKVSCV
property_measured: pKi
Convention used: pKi is expressed as -log10 of the molar concentration.

Recorded pKi for `Cc1ccc(F)cc1CO[C@H]1CCc2ccc(N3CCNC[C@H]3C)nc21` , please?
8.35
